Test system: SF-295 CNS
TEST: NCI tumour cell line growth inhibition, 48 h
READOUT_TYPE: TGI

Check out these entries, answers already filled in.
MOLECULE	READOUT_TYPE	REPORTED_VALUE
Cc1cccc2c(=O)cc(-c3ccccc3)[nH]c12	TGI	18.7 µM
CC[C@@]1(C[C@H]2C[C@@]3(C(=O)OC)c4[nH]c5ccccc5c4CCN3C2=O)COC2(CCCCC2)O1	TGI	> 100 µM

Prompt: Give its TGI value. Item: CC1(c2ccc(F)cc2)C(C#N)C(=O)NC(=O)C1C#N (stereo unspecified)
Response: > 100 µM

Prompt: Quick one: TGI of CC(C)=CC(=O)C1c2cccc(O)c2C(=O)c2c(O)cc(C)cc21 (stereo unspecified) ?
Response: 3.39 µM

Prompt: Could you share which TGI value was measured for Oc1cc2c3c(c1)c1cc4c(cc1c[n+]3CC2)OCO4 ?
Response: > 100 µM

Prompt: Consider the molecule shown here: N#CCCN(CCC#N)c1ccc(/C=C2\N=C(c3cc([N+](=O)[O-])ccc3Cl)OC2=O)cc1 What is its recorded TGI?
Response: > 100 µM

Prompt: # TGI lookup, item CCC12C=CCN3CCC4(C(=C(C(=O)OC)[C@@H]1O)Nc1ccccc14)C32 (stereo partly specified)
Response: 5.7 µM

Prompt: Look up TGI for this molecule: FC(F)(F)c1cc(Cl)cnc1N/N=C(/c1ccccc1)c1ccccn1
Response: 5.5 µM

Prompt: Entry CN(C)CC[N+]1=Nc2cccc3cccc(c23)N1 : reported TGI = ?
Response: > 100 µM

Prompt: Consider the molecule shown here: NC(=O)c1sc(-n2cnc3ccccc32)cc1OCc1ccccc1Br What is its recorded TGI?
Response: > 25 µM

Prompt: Entry O=S1(=O)NC(=NCc2c[nH]c3ccccc23)N(c2ccccc2)c2ccncc21 : reported TGI = ?
Response: > 100 µM

----------
Test system: SK-OV-3 ovarian
TEST: NCI tumour cell line growth inhibition, 48 h
READOUT_TYPE: TGI

Prompt: For COc1cc(Cc2cnc(/N=C3\C(=O)N(CN4CCN(c5c(F)cc6c(=O)c(C(=O)O)cn(C7CC7)c6c5OC)CC4C)c4ccc(F)cc43)nc2N)cc(OC)c1OC (stereo unspecified) , what is its reported TGI?
Response: 43.1 µM

Prompt: TGI for CCOC(=O)C(NC(C)=O)(Nc1ccc(F)cc1)C(F)(F)F (stereo unspecified) ?
Response: > 100 µM

Prompt: TGI for COc1ccc(C2c3cc4c(cc3OC(NNS(=O)(=O)c3ccc(C)cc3)C2C)OCO4)cc1 (stereo unspecified) ?
Response: > 100 µM

Prompt: Please look up its TGI: Cn1c2ccccc2c2c(Nc3ccccc3)c3ccccc3nc21
Response: > 100 µM

Prompt: Any idea what TGI was measured for COc1ccc(C(=O)Cn2c(C(=O)c3ccccc3)nc(-c3ccc(OC)cc3)c2-c2ccc(OC)cc2)cc1 ?
Response: > 100 µM

Prompt: Please report the recorded TGI for O=C1C(=Cc2ccc(O)cc2)N=C(c2ccccc2)N1n1c(-c2ccccc2)nc2ccccc2c1=O .
Response: > 100 µM

Prompt: Which TGI reading was recorded for the molecule O=C1CCC(=O)N1n1c(Cc2ccccc2)n[nH]c1=O ?
Response: > 100 µM

Prompt: Which TGI value is on record for c1ccc2cc(-c3cc(-c4cc(-c5ccc6ccccc6c5)on4)no3)ccc2c1 ?
Response: > 100 µM

Prompt: Consider the molecule O=C(COc1ccc(Br)cc1Br)N1N=C(c2ccc([N+](=O)[O-])o2)CC1(O)c1ccccc1 (stereo unspecified) and give its measured TGI.
Response: > 100 µM

# credit: PubChem BioAssay (NCI)
